Answer each item with its documented Phytotoxicity on rice.
# Tested on: rice
# assay: Water application, phytotoxicity on rice (Table 2)
# Format: in vivo
# Design: key: 0: no effect; 1: very slightly affected; 2: slightly affected; 3: moderately affected; 4: considerably affected; 5: completely killed
# testContext: 40 g/a, 25 days, score 0-5
Number, no unit, nothing else.

# Phytotoxicity on rice lookup, item CCCCOP(=O)(SCC(=O)N1CCCCC1C)SCc1ccc(C)cc1 (centres unmarked)
0

Given CCOP(=O)(SCC)SCC(=O)N1CCCC(C)C1 (centres unmarked) , state its recorded Phytotoxicity on rice.
0

Data request, read-out Phytotoxicity on rice, for CCOP(=O)(SCC)SCC(=O)N1CCCCC1CC (centres unmarked)
1

Recorded Phytotoxicity on rice of CCCCOP(=O)(SCCCC)SCC(=O)N1CCCCC1CC (centres unmarked) , please.
0

Dear colleague, I am looking for the recorded Phytotoxicity on rice of the following compound: CCCCSP(=O)(OCC)SCC(=O)N1CCCCC1C (centres unmarked)
0

Bench note: what Phytotoxicity on rice did CCCOP(=O)(SCC)SCC(=O)N1CCCCC1CC (centres unmarked) show?
2

For CCCOP(=O)(SCCC(C)C)SCC(=O)N1CCCCC1CC (centres unmarked) , what is its reported Phytotoxicity on rice?
1

What does the data say about its Phytotoxicity on rice? Entry: CCCSP(=O)(OCC)SCC(=O)N1CCCC(C)C1 (centres unmarked)
0

Any idea what Phytotoxicity on rice was measured for CCCCCCSP(=O)(OCC)SCC(=O)N1CCCCC1C (centres unmarked) ?
0

Which measured Phytotoxicity on rice value corresponds to CCCCSP(=O)(OCCC)SCC(=O)N1CCCCC1CC (centres unmarked) ?
0

// returns reported Phytotoxicity on rice for input CCCSP(=O)(OCC)SCC(=O)N1CCC(C)CC1 (centres unmarked)
0

So what does the record say about Phytotoxicity on rice for CCOP(=O)(SCC(=O)N1CCCCC1C)SCc1ccc(Cl)cc1 (centres unmarked) ?
1

Fill in the blank: the reported Phytotoxicity on rice of CCCCOP(=O)(SCC)SCC(=O)N1CCCCC1CC (centres unmarked) is ____.
2

Item under review: CCCCOP(=O)(SCC(=O)N1CCCCC1CC)SCC(C)C (centres unmarked) . Reported Phytotoxicity on rice?
0

What value of Phytotoxicity on rice has been reported for the following compound? CCCCCSP(=O)(OCCCC)SCC(=O)N1CCCCC1CC (centres unmarked)
0

Phytotoxicity on rice for CCOP(=O)(SCC(=O)N1CCCCC1C)SCc1ccc(CC)cc1 (centres unmarked) ?
0

# input compound: CCOP(=O)(SCC(=O)N1CCCCC1CC)SC(C)C (centres unmarked) ; wanted: its Phytotoxicity on rice
0

Would you mind telling me what Phytotoxicity on rice value was observed for CCOP(=O)(SCCc1ccccc1)SCC(=O)N1CCCCC1C (centres unmarked) ?
0

Recorded Phytotoxicity on rice of CCOP(=O)(SCC)SCC(=O)N1CCCCC1C (centres unmarked) , please.
0

Given the entry CCCCCSP(=O)(OCC)SCC(=O)N1CCCC(C)C1 (centres unmarked) , report its measured Phytotoxicity on rice.
0

Given the entry CCCCOP(=O)(SCC(=O)N1CCCCC1CC)SC(C)CC (centres unmarked) , report its measured Phytotoxicity on rice.
0

Item under review: CCOP(=O)(SCC(=O)N1CCCCC1C)SC(C)C (centres unmarked) . Reported Phytotoxicity on rice?
0

What does the data say about its Phytotoxicity on rice? Entry: CCCOP(=O)(SCC(=O)N1CCCCC1CC)SCC(C)C (centres unmarked)
0

Record request: Phytotoxicity on rice value, item C=C(Cl)CSP(=O)(OCC)SCC(=O)N1CCCCC1C (centres unmarked)
0

Which value of Phytotoxicity on rice has been reported for CCCCCSP(=O)(OCC)SCC(=O)N1CCCCC1CC (centres unmarked) in the records?
0

Request the reported Phytotoxicity on rice associated with C=CCSP(=O)(OCCC)SCC(=O)N1CCC(C)CC1 (centres unmarked)
0

Returns the measured Phytotoxicity on rice for the input compound. Input: CCCOP(=O)(SC)SCC(=O)N1CCCCC1CC (centres unmarked)
0

Entry CCCOP(=O)(SCC(=O)N1CCCCC1C)SCC(C)C (centres unmarked) : reported Phytotoxicity on rice = ?
0

For the compound CCCOP(=O)(SCCC(C)C)SCC(=O)N1CCCCC1C (centres unmarked) , what Phytotoxicity on rice is on record?
1

Return reported Phytotoxicity on rice; argument: COP(=S)(NC(C)C)Oc1ccc(Cl)cc1Cl (centres unmarked) [Zytron, reference compound]
0

May I ask what Phytotoxicity on rice has been recorded for CCCOP(=O)(SC)SCC(=O)N1CCCCC1C (centres unmarked) ?
0

# input compound: CCOP(=O)(SCCC(C)C)SCC(=O)N1CCCCC1C (centres unmarked) ; wanted: its Phytotoxicity on rice
0

Looking for the measured Phytotoxicity on rice of C=C(Cl)CSP(=O)(OCC)SCC(=O)N1CCCCC1CC (centres unmarked) , can you help?
2

Can you share its Phytotoxicity on rice? I mean this compound: CCOP(=O)(SCC(=O)N1CCCCC1C)SCc1ccc(C)cc1 (centres unmarked)
0

Record request: Phytotoxicity on rice value, item CCCOP(=O)(SCC(=O)N1CCCCC1C)SC(C)C (centres unmarked)
0

This collection of values is drawn from patent US4015974A.
